- target: Coagulation factor VII (Homo sapiens)
- method_summary: Inhibition of human coagulation factor VII at 7.2-44 uM
Peptide text beside a SMILES is read from it. * marks the point of attachment. Dansyl = CN(C)c1cccc2c(S(=O)(=O)*)cccc12; CH2Cl = ClC*
value_type: log10 of K obs / 1 (log10 of the value in M⁻¹ s⁻¹)
The figures below represent log10 of K obs / 1, where K obs / 1 is stated in M⁻¹ s⁻¹.

Answered cases to consult:
- N=C(N)SCCOc1oc(=O)c2cc(NC(=O)Cc3ccccc3)ccc2c1Cl: 3.04
- N=C(N)SCCCOc1oc(=O)c2cc(N)ccc2c1Cl: 2.63
- CCOc1oc(=O)c2cc(NC(=N)N)ccc2c1Cl: 3.34
- O=c1oc(Cl)c(Cl)c2ccccc12: 1.49
- CN(C)c1cccc2c(S(=O)(=O)N[C@@H](CCC(=O)O)C(=O)NCC(=O)N[C@@H](CCCN=C(N)N)C(=O)CCl)cccc12 (Dansyl-Glu-Gly-Arg-CH2Cl): 1.30

### Prompt Endpoint output: log10 of K obs / 1 of N=C(N)SCCCOc1oc(=O)c2cc(NC(=O)Nc3ccccc3)ccc2c1Cl . Value?
### Response 2.86

### Prompt Item under review: N=C(N)SCCOc1oc(=O)c2cc(NC(=O)Nc3ccccc3)ccc2c1Cl . Reported log10 of K obs / 1?
### Response 3.50

* * *

- target: UniProt:P00735
- method_summary: Inhibition of bovine thrombin (inhibitor concentration 1.2-54 uM)
Below: a set of entries, each annotated with reported K obs / 1.

The examples below pair each entry with its known result.
- CC(C)(C)OC(=O)N[C@H](Cc1ccccc1)C(=O)Nc1ccc2c(Cl)c(OCCSC(=N)N)oc(=O)c2c1: 1090 M⁻¹ s⁻¹
- CC(C)(C)OC(=O)N[C@@H](Cc1ccccc1)C(=O)Nc1ccc2c(Cl)c(OCCCSC(=N)N)oc(=O)c2c1: 190 M⁻¹ s⁻¹
- N=C(N)SCCCOc1oc(=O)c2cc(NC(=O)Nc3ccccc3)ccc2c1Cl: 970 M⁻¹ s⁻¹

### Prompt Endpoint output: K obs / 1 of N=C(N)SCCCOc1oc(=O)c2cc(NC(=O)Cc3ccccc3)ccc2c1Cl . Value?
### Response 600 M⁻¹ s⁻¹

### Prompt Which K obs / 1 value is on record for O=c1oc(Cl)c(Cl)c2ccccc12 ?
### Response 25 M⁻¹ s⁻¹

// data source = ChEMBL document CHEMBL1127646
